Hello, the source for this data is patent US20070049564A1, in case you need it.

Test system: S. pneumoniae* GC 4465
Experiment: MIC, broth microdilution
Conditions: Streptococcus pneumoniae, S. pneumoniae* GC 4465; Water pre-incubation
REPORTED_PROPERTY: MIC (µg/mL)
Reply with just the number (in µg/mL).

Known MIC results, listed for orientation:
S. pneumoniae* GC 4465 MIC of CCCCN(CC(=O)Nc1cc(N(C)C)c2c(c1O)C(=O)C1=C(O)[C@]3(O)C(=O)C(C(N)=O)=C(O)[C@@H](N(C)C)[C@@H]3C[C@@H]1C2)C(=O)OCOC(=O)C(C)(C)C [Example 13] is 0.5

S. pneumoniae* GC 4465 MIC of CCCN(CC(=O)Nc1cc(N(C)C)c2c(c1O)C(=O)C1=C(O)[C@]3(O)C(=O)C(C(N)=O)=C(O)[C@@H](N(C)C)[C@@H]3C[C@@H]1C2)C(=O)OCC [Example 15] is 2

S. pneumoniae* GC 4465 MIC of CCCN(CC(=O)Nc1cc(N(C)C)c2c(c1O)C(=O)C1=C(O)[C@]3(O)C(=O)C(C(N)=O)=C(O)[C@@H](N(C)C)[C@@H]3C[C@@H]1C2)C(=O)OCC(C)C [Example 16] is 4

S. pneumoniae* GC 4465 MIC of CCCN(CC(=O)Nc1cc(N(C)C)c2c(c1O)C(=O)C1=C(O)[C@]3(O)C(=O)C(C(N)=O)=C(O)[C@@H](N(C)C)[C@@H]3C[C@@H]1C2)C(=O)OCOC(=O)c1ccc(F)cc1 [Example 8] is 0.25

S. pneumoniae* GC 4465 MIC of CCCCN(CC(=O)Nc1cc(N(C)C)c2c(c1O)C(=O)C1=C(O)[C@]3(O)C(=O)C(C(N)=O)=C(O)[C@@H](N(C)C)[C@@H]3C[C@@H]1C2)C(=O)OCOC(=O)Cc1ccccc1 [Example 12] is 0.12

Kindly consider the entry below.
S. pneumoniae* GC 4465 MIC of CCCCN(CC(=O)Nc1cc(N(C)C)c2c(c1O)C(=O)C1=C(O)[C@]3(O)C(=O)C(C(N)=O)=C(O)[C@@H](N(C)C)[C@@H]3C[C@@H]1C2)C(=O)OCOC(=O)c1ccc(F)cc1 [Example 4] is 0.12
